Tested on: 3T3
Test: Acute oral toxicity dose LD50 by 3T3 Neutral Red Uptake (NRU) assay (OECD Guidance Document No 129)
Assay type: cell-based
Conditions: LD50 calculated from 3T3 NRU assay (OECD GD 129)
assayMetric: Acute oral toxicity dose (mg/Kg) LD50 (mg/kg)
Give just the numeric value; mg/kg need not be written.

// below: answered molecules
C=CC(=O)OCC[N+](CCCC)(CCCC)CCCCCCCCCCCC [Monomer 3]; 843
C=C(C)C(=O)OCC[N+](CCCC)(CCCCCCCC)CCCCCCCCCC (centres unmarked) [Monomer 7]; 998
C=CC(=O)OCC[N+](CCCCCCCCCCCCCC)(CCCCCCCCCCCCCC)CCCCCCCCCCCCCC [Comparative Monomer 2, reference compound]; 231

Now consider the entry below.
Asked: Requested field: Acute oral toxicity dose (mg/Kg) LD50. Item: C=C(C)C(=O)OCC[N+](CCCC)(CCCCCCCCCC)CCCCCCCCCC [Monomer 8]
Given back: 869
